Tested on: Corn
Measurement Notes: Pre-emergence treatment, phytotoxicity to corn
Assay type: in vivo
Experimental Parameters: 500 g/ha, 4 weeks after spraying, scale 0 to 10 (0: no effects, 10: complete death)
Hi, to clarify the labels: fulfilled covers Phytotoxicity, Corn from 1 upward, not fulfilled covers anything below 1.

Solved entries (count: 5):
CC1(COCc2c(F)cccc2F)CC(c2ccccc2F)=NO1 (stereo not shown) | fulfilled
CC1(COCc2c(F)cccc2F)CC(c2ccccc2C(F)(F)F)=NO1 (stereo not shown) | fulfilled
CC1(COCc2ccccc2F)CC(c2ccccc2[N+](=O)[O-])=NO1 (stereo not shown) [Reference A] | not fulfilled
CC1(COCc2c(F)cccc2Cl)CC(c2ccccc2Cl)=NO1 (stereo not shown) [Reference B] | not fulfilled
CC1(COCc2c(F)cccc2F)CC(c2ccccc2Cl)=NO1 (stereo not shown) | not fulfilled

Request: Quick check: does CC1(COCc2c(F)cccc2Cl)CC(c2ccccc2)=NO1 (stereo not shown) [Reference H] have Phytotoxicity, Corn greater than or equal to 1?
Result: fulfilled

Request: Quick check: does Cc1ccccc1C1=NOC(C)(COCc2ccccc2F)C1 (stereo not shown) [Reference D] have Phytotoxicity, Corn greater than or equal to 1?
Result: not fulfilled

Request: Quick check: does Cc1ccc(C2=NOC(C)(COCc3c(F)cccc3F)C2)cc1 (stereo not shown) [Reference G] have Phytotoxicity, Corn greater than or equal to 1?
Result: not fulfilled
